Data credit: paper PMC4014702

# protocol_notes: Hydrolysis kinetics in human plasma
# Format: in vitro ADME
# condition_description: 37 ± 0.3 °C
measure_name: half-life at 5 µg/mL (min)
Give the value, in units of min, as a plain number.

// field: half-life at 5 µg/mL; key: O=C(Cc1ccccc1Nc1c(Cl)cccc1Cl)OCCOC(=O)N1CCOCC1 ; value = 21

---

# protocol_notes: Hydrolysis kinetics in aqueous buffer solution
# Type: physicochemical
# condition_description: pH 7.4 (phosphate buffer), about 37 °C
measure_name: half-life (h)
Give the value, in units of h, as a plain number.

// field: half-life; key: O=C(Cc1ccccc1Nc1c(Cl)cccc1Cl)OCCOC(=O)N1CCOCC1 ; value = 47
